cytotoxicity at 70.5 h listing for selected compounds.
Assay remarks: Human HepG2 cell viability assay in 384 well format
Type: toxicity, cell-based
Set-up: dose 125 nL, time 70.5 hour; concentration not given beside the values
Experimental setup: HepG2 cells, read-out: Inhibition

Recorded results for 5 compounds are shown here.
>  <Compound>
Cc1cc(CN(C)S(=O)(=O)N2CCCC2c2ccc(C)o2)no1 (stereo unspecified)

>  <cytotoxicity at 70.5 h>
-9.33%

$$$$
>  <Compound>
Cc1nc(C2CCCN(C(=O)c3c[nH]c(C(C)C)n3)C2)no1 (stereo unspecified)

>  <cytotoxicity at 70.5 h>
-2.72%

$$$$
>  <Compound>
Cc1cc(C(=O)N2CCC3(CC2)c2nc[nH]c2CCN3CC(C)C)no1

>  <cytotoxicity at 70.5 h>
7%

$$$$
>  <Compound>
CCc1ccc(CN2CCC(c3ccccc3C(=O)O)C2)nc1 (stereo unspecified)

>  <cytotoxicity at 70.5 h>
-13.9%

$$$$
>  <Compound>
COCCC(=O)N(C)CCC1=CCN(C)CC1

>  <cytotoxicity at 70.5 h>
33%

$$$$

Now look at this one.
Which cytotoxicity at 70.5 h value is on record for `Cc1ccc(CNC2CCN(CCc3ccncc3)CC2)s1` ?
1.18%

----------
# key: entry, value: cytotoxicity at 70.5 h
Assay remarks: Human HepG2 cell viability assay in 384 well format
Type: toxicity, cell-based
Parameters: dose 125 nL, time 70.5 hour; concentration not given beside the values
Experimental setup: HepG2 cells, read-out: Inhibition
Respond with the bare value in %.

Example results:
>  <Molecule>
CN(C)Cc1ccnc(NS(=O)(=O)CCc2ccccc2)c1

>  <Reported result>
3.89

$$$$
>  <Molecule>
CSCc1ccc(N2CCC(C(O)Cc3ccccc3)CC2)nc1 (stereo unspecified)

>  <Reported result>
26.6

$$$$
>  <Molecule>
Cc1noc(NCc2cn(C)nc2-c2ccncc2)n1

>  <Reported result>
-11.4

$$$$
>  <Molecule>
Cn1ccnc1CN1CCC2(CC1)CC(NC(=O)c1ccccn1)CO2 (stereo unspecified)

>  <Reported result>
8.41

$$$$
>  <Molecule>
N#Cc1ccccc1CC1CCCS(=O)(=O)C1 (stereo unspecified)

>  <Reported result>
1.43

$$$$

Please examine the following record next.
Look up cytotoxicity at 70.5 h for this molecule: `COCCCS(=O)(=O)N1CCN(C(=O)CO)CC1`
-0.333

----------
Assay remarks: Human HepG2 cell viability assay in 384 well format
Assay type: toxicity, cell-based
Design: dose 125 nL, time 70.5 hour; concentration not given beside the values
Experimental setup: HepG2 cells, read-out: Inhibition
Property: cytotoxicity at 70.5 h; scope: individual compounds
Please respond with the number in % and leave the unit unwritten.

Below, 3 compounds whose answers are already recorded.
>  <Compound>
O=C(c1ccccn1)N1CCC(c2nccn2Cc2ccncc2)CC1

>  <Reported metric>
cytotoxicity at 70.5 h

>  <Reported result>
-14.4

$$$$
>  <Compound>
Cc1ccc(OCC(=O)NCc2sccc2C)nc1

>  <Reported metric>
cytotoxicity at 70.5 h

>  <Reported result>
-3.68

$$$$
>  <Compound>
Cn1ncc2c(NC3CCC3)nc(-c3ccncc3)nc21

>  <Reported metric>
cytotoxicity at 70.5 h

>  <Reported result>
-0.235

$$$$

Which cytotoxicity at 70.5 h is listed for Cc1nccn1CCCN1CCCC(c2nccn2C)C1 (configuration not stated) ?
21.3

Which measured cytotoxicity at 70.5 h value corresponds to CC(C)NC(=O)N1CCC2(CC1)NC(=O)CC2c1ccncc1 (configuration not stated) ?
-1.45
